Listing of recorded GTI (±SE), genotoxicity index by entry.
tested on: genomic DNA damage in Chinese hamster ovary (CHO) cell line AS52, clone 11-4-8; test: Single cell gel electrophoresis; assay type: cell-based; details: mean bootstrap value, calculated as (50%TDNA)^−1(10^3); CHO cells, 4 h
observation.type: GTI (±SE), genotoxicity index (M⁻¹)

[
  {
    "compound": "O=CC(Br)(Br)Br",
    "unit.spec": "M⁻¹",
    "observed": 3.00
  },
  {
    "compound": "O=CC(Br)Br",
    "unit.spec": "M⁻¹",
    "observed": 9.11
  },
  {
    "compound": "O=CCBr",
    "unit.spec": "M⁻¹",
    "observed": 2.68
  },
  {
    "compound": "O=CC(Cl)(Br)Br",
    "unit.spec": "M⁻¹",
    "observed": 6.99
  },
  {
    "compound": "O=CC(Cl)(Cl)Br",
    "unit.spec": "M⁻¹",
    "observed": 2.24
  },
  {
    "compound": "O=CC(Cl)Br (centres unmarked)",
    "unit.spec": "M⁻¹",
    "observed": 1.61
  },
  {
    "compound": "O=CCI",
    "unit.spec": "M⁻¹",
    "observed": 0.96
  },
  {
    "compound": "O=CC(Cl)Cl",
    "unit.spec": "M⁻¹",
    "observed": 1.26
  }
]

Values were extracted from paper PMC4791037.
